Catalogue of IC50 readings, one per entry.
# Target Or System: Nanoluciferase-BRD9 fusion protein (3×FLAG-NLuc-BRD9) in SYO-1 cells (Homo sapiens (Human), UniProt Q9H8M2)
# Sequence (Q9H8M2 whole entry, the tested form may be a part): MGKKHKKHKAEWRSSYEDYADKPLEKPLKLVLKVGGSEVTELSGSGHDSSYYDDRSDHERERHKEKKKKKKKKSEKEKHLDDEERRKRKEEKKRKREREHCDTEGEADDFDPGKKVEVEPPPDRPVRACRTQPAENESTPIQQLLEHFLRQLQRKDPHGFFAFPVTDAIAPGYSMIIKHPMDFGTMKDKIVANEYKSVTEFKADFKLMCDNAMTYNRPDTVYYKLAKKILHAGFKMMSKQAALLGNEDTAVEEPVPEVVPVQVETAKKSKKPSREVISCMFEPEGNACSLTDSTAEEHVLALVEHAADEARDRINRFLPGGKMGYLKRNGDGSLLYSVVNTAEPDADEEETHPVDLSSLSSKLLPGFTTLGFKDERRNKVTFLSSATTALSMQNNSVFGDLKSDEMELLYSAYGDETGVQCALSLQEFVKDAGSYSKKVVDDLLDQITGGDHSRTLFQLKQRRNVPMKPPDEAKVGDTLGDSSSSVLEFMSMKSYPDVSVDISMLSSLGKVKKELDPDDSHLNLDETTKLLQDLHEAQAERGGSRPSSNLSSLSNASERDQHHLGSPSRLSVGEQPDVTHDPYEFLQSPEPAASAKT
# Experiment Notes: SYO1 BRD9 NanoLuc degradation assay
# Type: cell-based
# Experimental Setup: SYO-1 cells, 6 hours, Table 6C

Compound | IC50
COc1cc(-c2cn(C)c(=O)c3c2CCC3)cc(OC)c1-c1ccc2c(c1)C(=O)N(C1CCC(=O)NC1=O)C2 (stereo not drawn) [Compound D374] | < 10 nM
COc1cc(-c2cn(C)c(=O)c3c2CCC3)cc(OC)c1CN1CC(C#Cc2ccc3c(c2)C(=O)N(C2CCC(=O)NC2=O)C3)C1 (stereo not drawn) [Compound D365] | < 10 nM
CNC(=O)N1CCc2c(-c3cc(OC)c(CN4CCN(CCC5CCN(c6ccc7c(c6)C(=O)N(C6CCC(=O)NC6=O)C7=O)CC5)CC4)c(OC)c3)c(C)n(C)c(=O)c2C1 (stereo not drawn) [Compound D337] | ≥ 1000 nM
CNC(=O)N1CCc2c(-c3cc(OC)c(CN4CCN(CCC5CCN(c6ccc7c(c6)C(=O)N(C6CCC(=O)NC6=O)C7)CC5)CC45CC5)c(OC)c3)cn(C)c(=O)c2C1 (stereo not drawn) [Compound D314] | < 10 nM
COc1cc(-c2cn(C)c(=O)c3c2CCN(C(=O)NCC(F)F)C3)cc(OC)c1CN1CCN(CCC2CCN(c3ccc4c(c3)C(=O)N(C3CCC(=O)NC3=O)C4)CC2)CC12CCC2 (stereo not drawn) [Compound D333] | < 10 nM

// query # get_value(readout='IC50', item= COc1cc(-c2cn(C)c(=O)c3c2CCC3)cc(OC)c1CN1CC(Oc2ccc3c(c2)C(=O)N(C2CCC(=O)NC2=O)C3=O)C1 (stereo not drawn) [Compound D362] )
// result < 10 nM

Attribution: patent US12384776B2
